system: Phospho-PRAS40(T246); assay: Luminex multiplex assay, Phospho-PRAS40(T246); assay type: cell-based; conditions: PC3 cell line; read-out: Luminex PRAS40
hey, just use true if measured IC50 is less than 0.8 µM, otherwise false

Reference set, count: 5
* O=C1CN(CCC2CCOCC2)c2nc(-c3ccc4[nH]ccc4c3)cnc2N1 [C-40] | false
* Cc1nc(-c2nnc[nH]2)ccc1-c1cnc2c(n1)N(CCC1CCOCC1)C(=O)CN2 [C-9] | true
* CC(C)(O)c1ccc(-c2cnc3c(n2)N(CC2CC2)CC(=O)N3)cn1 [C-17] | false
* O=C1CN(CCC2CCOCC2)c2nc(-c3cnc4[nH]ccc4c3)cnc2N1 [C-44] | true
* CC(C)(O)c1ccc(-c2cnc3[nH]c(=O)n(CC4CCCCC4)c3n2)cc1 [C-1] | false

Q: Below 0.8 µM on IC50? Entry CC(C)(O)c1ccc(-c2cnc3c(n2)N(CC2CCOCC2)CC(=O)N3)cn1 [C-5]
A: false

Q: Below 0.8 µM on IC50? Entry COCCN1C(=O)CNc2ncc(-c3ccc(-c4nnc[nH]4)nc3C)nc21 [C-14]
A: true

Q: Below 0.8 µM on IC50? Entry O=C1CNc2ncc(-c3ccc4cc[nH]c4c3)nc2N1CCC1CCOCC1 [C-49]
A: false

Q: Below 0.8 µM on IC50? Entry COC1CCC(CN2C(=O)CNc3ncc(-c4cnc(-c5nc[nH]n5)cc4C)nc32)CC1 (stereo not shown) [C-91]
A: true

Q: Below 0.8 µM on IC50? Entry COc1ccc(-c2cnc3c(n2)N(CCC2CCOCC2)C(=O)CN3)cn1 [C-105]
A: false

###

system: GSK-3β; test: MSD assay, GSK-3β phosphorylation in cell lysates; type: cell-based; conditions: PC3 cell line; read-out: MSD GSK-3β
Listed next: entries and their corresponding pIC50.
Please keep in mind that pIC50 is minus log10 of the molar concentration; only the number is needed.

* CCN1CC(=O)Nc2ncc(-c3cc(F)c(-c4nc[nH]n4)cc3C)nc21 | 6.49
* O=C1CNc2ncc(-c3ccnc4[nH]ccc34)nc2N1CCC1CCOCC1 | 5.55
* Cc1cc(-c2nc[nH]n2)c(F)cc1-c1cnc2c(n1)N(C1CCOCC1)CC(=O)N2 | 6.49

Cc1cc(-c2nc[nH]n2)c(F)cc1-c1cnc2c(n1)N([C@H]1CC[C@H](O)CC1)C(=O)CN2 yielded pIC50 of 7.92

COCCN1C(=O)CNc2ncc(-c3ccc(-c4nnc[nH]4)nc3C)nc21 yielded pIC50 of 6.44

CC(C)N1C(=O)CNc2ncc(-c3ccc(-c4ncn[nH]4)nc3)nc21 yielded pIC50 of 6.74

Cc1cc(-c2nc[nH]n2)c(F)cc1-c1cnc2c(n1)N(C(C)C)CC(=O)N2 yielded pIC50 of 7.00

O=C1CNc2ncc(-c3ccnc(O)c3)nc2N1CCC1CCOCC1 yielded pIC50 of 5.94

CNc1ccc(-c2cnc3c(n2)N(CCC2CCOCC2)C(=O)CN3)cn1 yielded pIC50 of 5.69

COC1CCC(N2C(=O)CNc3ncc(-c4ccc(-c5nnc[nH]5)nc4C)nc32)CC1 (stereo not drawn) yielded pIC50 of 6.82

###

tested on: Phospho-p70S6K (T389); assay: MSD assay, phospho-p70S6K (T389) in cell lysates; type: cell-based; conditions: PC3 cell line; read-out: MSD p70S6K
value-kind: pIC50
Please keep in mind that pIC50 is minus log10 of the molar concentration; only the number is needed.

Example compounds with recorded pIC50:
* O=C1CNc2ncc(-c3cccc4[nH]cnc34)nc2N1CCC1CCOCC1 [C-162] | 5.32
* CC(C)N1C(=O)CNc2ncc(-c3ccc(-c4ncn[nH]4)nc3)nc21 [C-138] | 7.40
* Cc1cc(-c2nc[nH]n2)c(F)cc1-c1cnc2c(n1)N(CC1CCC(O)CC1)CC(=O)N2 (stereo not drawn) [C-143] | 8.40

Next, consider the following compound.
O=C1CN(C2CCOCC2)c2nc(-c3ccc(-c4ncn[nH]4)nc3)cnc2N1 [C-125] yielded pIC50 of 7.14
